The following compounds are listed with their measured inhibition values.
experiment: M. tuberculosis growth inhibition, HTS (AID 449762);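 also: bacterial growth assessed after seven days of incubation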
condition_context: M. tuberculosis H37Rv growth inhibition, 7H9 media; at 25 µM; hits give high values
Hit rate of the full screen: of about 330,000 compounds, about 1,900 (0.58%) were called active. Not shown: some 4% with an inconclusive outcome. Only a sample is shown. Results with a measured potency or affinity are listed apart.
Use % as the unit, but write only the number.

Example compounds with recorded inhibition:
compound	observed_measurement
O=C(Cn1nc(CNc2ccc(Br)cc2)[n+]2c1CCCCC2)c1ccc([N+](=O)[O-])cc1	64.9
COCCn1c(-c2ccc(OC)cc2)cnc1SCC(=O)Nc1cccc2ccccc12	57.1
Cc1oc(-c2ccccc2F)nc1CSCC(=O)NC1CCCC1	-11.2
COc1ccc(N2CC(C(=O)Nc3ccccc3N3CCCC3)CC2=O)c(OC)c1 (stereo not given)	-6.59

The record that follows has no inhibition shown yet.
QUERY: Please supply the value of reported inhibition for the item "O=C(Cn1nc(CNc2ccc(Cl)cc2)[n+]2c1CCCCC2)c1ccccc1"
RESULT: 0.81
